- Tested on: MDA-MB-436
- procedure-details: Antiproliferative activity against human MDA-MB-436 cells assessed as decrease in cell viability after 24 hrs by MTT assay
- Type: functional, cell-based
- settings: MDA-MB-436, 24 h
experimental-readout: IC50

These recorded examples may help you get a feel for the data.
# molecule, experimental-readout, endpoint-result
records = [
    ("CC(C)(C)c1ccc(C(CC(=O)O)NS(=O)(=O)c2ccc(OC(F)(F)F)cc2)cc1 (stereo not drawn)", "IC50", "> 100 µM"),
    ("CC(C)(C)c1ccc(C(CC(=O)O)NS(=O)(=O)c2ccccc2)cc1 (stereo not drawn)", "IC50", "> 100 µM"),
]

Attention now shifts to the item below.
Summary for this molecule, O=C(O)CC(NC(=O)c1ccc(F)cc1)c1ccccc1F (stereo not drawn) : IC50 is > 100 µM

The values you see were collected from ChEMBL document CHEMBL4138216.
